# Study Target: T1, Recombinant Human BDCA2 (human, UniProt Q8WTT0 45-213, limits assumed)
# T1 construct: also called hBDCA2 (SPR analyte); human BDCA2 antigen
# T1 sequence (looked up): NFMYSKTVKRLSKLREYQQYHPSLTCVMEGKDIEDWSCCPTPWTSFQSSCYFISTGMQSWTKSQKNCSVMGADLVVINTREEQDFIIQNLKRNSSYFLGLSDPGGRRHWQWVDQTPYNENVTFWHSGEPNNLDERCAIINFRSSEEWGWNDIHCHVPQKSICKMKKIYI
# Measurement Description: SPR (BIAcore), antibody captured by anti-human IgG (Fc), hBDCA2 as analyte, 1:1 model
# key: entry, value: koff
Provide only the numeric value, understood in s⁻¹.

Solved cases (2 shown):
Hu033-13 (antibody, IgG1, V domains shown, Humanized IgG1; also called Hu033-13(BM4)) VH: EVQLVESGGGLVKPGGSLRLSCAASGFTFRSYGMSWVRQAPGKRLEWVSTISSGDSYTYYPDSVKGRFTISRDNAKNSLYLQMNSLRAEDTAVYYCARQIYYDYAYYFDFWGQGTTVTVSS VL: DIVLTQSPDSLAVSLGERATINCRASESVSFRTSHLMHWYQQKPGQPPKLLIYGASNLESGVPDRFSGSGSGTDFTLTISSLQAEDVAVYFCQQSIEDPPTFGGGTKVEIK | 0.000153
Hu033-23 (antibody, IgG1, V domains shown, Humanized IgG1; also called Hu033-23(BM3)) VH: EVQLVESGGGLVKPGGSLRLSCAASGFTFRSYGMSWVRQAPGKRLEWVSTISSGDSYTYYPDSVKGRFTISRDNAKNSLYLQMNSLKAEDTAVYYCARQIYYDYAYYFDFWGQGTTVTVSS VL: EIVLTQSPATLSLSPGERATLSCRASESVSFRTSHLMHWYQQKPGQAPRLLIYGASNLESGIPARFSGSGSGTDFTLTISRLEPEDFAVYYCQQSIEDPPTFGGGTKVEIK | 0.000207

*Q* Could you please provide reported koff for Hu033-10 (antibody, IgG1, V domains shown, Humanized IgG1; also called Hu033-10(BM4)) VH: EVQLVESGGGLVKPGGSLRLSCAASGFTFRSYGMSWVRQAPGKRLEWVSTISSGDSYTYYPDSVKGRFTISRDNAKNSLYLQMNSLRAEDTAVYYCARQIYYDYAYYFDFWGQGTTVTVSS VL: DIVLTQSPASLAVSPGQRATITCRASESVSFRTSHLMHWYQQKPGQPPKLLIYGASNLESGVPARFSGSGSETDFTLTINPVEAEDTANYYCQQSIEDPPTFGGGTKVEIK ? Thanks!
*A* 0.000118

Hello, the source for this data is patent US20250346673A1, in case you need it.
